Data credit: ChEMBL document CHEMBL4680154

# measurement.protocol: Tmax in Sprague-Dawley rat plasma at 30 mg/kg, po measured up to 24 hrs
# Assay type: ADME, organism-based

smiles.str: CC#CCn1c(N2CCC[C@@H](N)C2)nc2c1c(=O)n(CCCN1CCN(c3nc(-c4ccccc4)no3)CC1)c(=O)n2C.Cl
Tmax: 1.33 h
//
smiles.str: CC#CCn1c(N2CCC[C@@H](N)C2)nc2c1c(=O)n(CCCN1CCN(c3nc(-c4ccccc4)no3)CC1)c(=O)n2C
Tmax: 1.17 h

====

This listing pairs compounds with measured remaining at 0.5 h.
# measurement.protocol: Metabolic stability in Sprague-Dawley rat hepatocytes assessed as parent compound remaining incubated for 30 mins by LC-MS/MS analysis
# Assay type: ADME, cell-based, Hepatocyte
# condition.context: read-out: Stabilty
assay.readout: remaining at 0.5 h

smiles.str: CC#CCn1c(N2CCC[C@@H](N)C2)nc2c1c(=O)n(CCCN1CCC(c3nc(-c4ccccc4)c[nH]3)CC1)c(=O)n2C
value.measured: 21.7%
//
smiles.str: CC#CCn1c(N2CCC[C@@H](N)C2)nc2c1c(=O)n(CCCN1CCN(c3nc(-c4ccccc4)cs3)CC1)c(=O)n2C
value.measured: 39.6%
//
smiles.str: CC#CCn1c(N2CCC[C@@H](N)C2)nc2c1c(=O)n(CCCN1CCC(n3cc(-c4ccccc4)nn3)CC1)c(=O)n2C
value.measured: 19.7%
//
smiles.str: CC#CCn1c(N2CCC[C@@H](N)C2)nc2c1c(=O)n(CCCN1CCN(c3noc(-c4ccccc4)n3)CC1)c(=O)n2C
value.measured: 25%
//
smiles.str: CC#CCn1c(N2CCC[C@@H](N)C2)nc2c1c(=O)n(CCCN1CCN(c3nc(-c4ccccc4)no3)CC1)c(=O)n2C
value.measured: 23.8%

====

half-life listing for selected compounds.
# measurement.protocol: Elimination half-life in Sprague-Dawley rat plasma at 30 mg/kg, po measured up to 24 hrs
# Format: ADME, organism-based
# condition.context: read-out: beta t1/2 (converted)

smiles.str: CC#CCn1c(N2CCC[C@@H](N)C2)nc2c1c(=O)n(CCCN1CCN(c3nc(-c4ccccc4)no3)CC1)c(=O)n2C.Cl
measure.unit: h
half-life: 1.08
//
smiles.str: CC#CCn1c(N2CCC[C@@H](N)C2)nc2c1c(=O)n(CCCN1CCN(c3nc(-c4ccccc4)no3)CC1)c(=O)n2C
measure.unit: h
half-life: 1.11

====

# measurement.protocol: Apparent permeability in human Caco-2 cells at 50 uM after 1 hr by UPLC analysis
# Assay type: ADME, cell-based
assay.readout: Papp at 1 h, 50 µM (×10⁻⁶ cm/s)

smiles.str: CC#CCn1c(N2CCC[C@@H](N)C2)nc2c1c(=O)n(CCCN1CCN(c3nc(-c4ccccc4)no3)CC1)c(=O)n2C.Cl
value.measured: 19.1

====

# measurement.protocol: Mean residence time (0 to infinity) in ICR mouse at 20 mg/kg, po measured up to 24 hrs
# Type: ADME, organism-based
# condition.context: in vivo
assay.readout: MRT inf (h)

smiles.str: CC#CCn1c(N2CCC[C@@H](N)C2)nc2c1c(=O)n(CCCN1CCN(c3nc(-c4ccccc4)no3)CC1)c(=O)n2C
assay.readout: MRT inf
value.measured: 1.22

====

# measurement.protocol: Plasma protein binding in human at 5 uM after 5 hrs by LC-MS/MS based equilibrium dialysis method
# Assay type: ADME, cell-free
# condition.context: read-out: PPB (converted)

smiles.str: CC#CCn1c(N2CCC[C@@H](N)C2)nc2c1c(=O)n(CCCN1CCN(c3nc(-c4ccccc4)no3)CC1)c(=O)n2C.Cl
fraction unbound at 5 h, 5 µM: 0.028
